Would you mind telling me the reported Avg. POC of each entry?
- target.system: Pim-1 (Homo sapiens (Human), UniProt P11309)
- Sequence (P11309 whole entry): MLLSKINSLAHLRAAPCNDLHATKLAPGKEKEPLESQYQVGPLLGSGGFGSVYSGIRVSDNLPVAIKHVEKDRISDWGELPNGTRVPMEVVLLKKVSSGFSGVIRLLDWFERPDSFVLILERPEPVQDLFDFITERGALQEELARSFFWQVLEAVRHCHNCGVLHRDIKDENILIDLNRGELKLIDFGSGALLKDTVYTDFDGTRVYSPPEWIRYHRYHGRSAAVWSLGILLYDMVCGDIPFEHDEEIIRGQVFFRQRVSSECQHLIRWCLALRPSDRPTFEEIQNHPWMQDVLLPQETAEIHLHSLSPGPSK
- experiment.notes: KinaseProfiler off-target kinase profiling
- Format: biochemical
- recorded.conditions: 10 μM, ATP near Km
- Experimental: Representative compounds (Examples 12, 32, 26 and 2) of the invention were tested for off-target kinase activity at a concentration of 10 μM by Millipore, Inc. in their KinaseProfiler™ service against all the kinases available in their full kinase panel. Compounds were run in duplicate at a concentration of ATP near the Km for each individual kinase according to Millipore's specifications. […]
Answers are plain numbers, in POC.

Answered cases to consult:
1. Cc1c(-c2cnn(C)c2)nn(-c2ccccc2)c1NC(=O)N[C@H]1CCCc2ccccc21 [Example 2]: 173
2. Cc1c(-c2ccc(=O)n(C)c2)nn(-c2ccccc2)c1NC(=O)NC1CN(CC(F)(F)F)Cc2ccccc21 (stereo not shown) [Example 26]: 97.5

Respectfully, I request Avg. POC for each entry included below.
1. COCc1ccc2c(c1)C(NC(=O)Nc1c(C)c(-c3cnn(C)c3)nn1-c1ccccc1)COC2 (stereo not shown) [Example 32]
2. Cc1c(-c2cnn(C)c2)nn(-c2ccccc2)c1NC(=O)NC1CCOc2cc(F)ccc21 (stereo not shown) [Example 12]

// result
1. 109
2. 106

Reference for the values: patent US10351575B2
